# Tested on: Salmonella typhimurium Ames mutagenicity, literature compiled
# assay.procedure: DSSTox (CPDBAS) Carcinogenic Potency Database Salmonella Mutagenicity
Activity calls are given as the source filed them.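 Rule for the calls: active = chemicals rated mutagenic or weakly mutagenic in the Salmonella bacterial test by one literature review, or positive overall by another; inconclusive = no clear call, values can overlap the other calls; inactive = the rest.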
Respond using exactly one of the listed classes: active, inactive

# count of solved cases: 5
> print(dat)
               smiles.repr     group
1  Nc1ccc(Sc2ccc(N)cc2)cc1    active
2          Cc1ccc(O)c(O)c1  inactive
3                O=C1CCCO1  inactive
4          Cc1cccc2cccnc12    active
5           C=CCN(CC=C)N=O    active

Could you please tell me the result logged for "C/C=C1/C[C@@H](C)[C@](O)(CO)C(=O)OCC2=CCN3CC[C@@H](OC1=O)[C@@H]23" in this assay?
active
